Test: Luminescence activity assay of purified Gaussia luciferase mutants on coelenterazine
Assay type: biochemical
Design: key: ratio of mutant luminescence intensity to wild-type Gaussia luciferase
Settings: Substrate CTZ (Table 16)
Field: label. Allowed values: Condition met (Activity of mutant relative to wild-type Gaussia luciferase without the signal peptide < 0.8) or Condition not met (Activity of mutant relative to wild-type Gaussia luciferase without the signal peptide >= 0.8).

[[record]]
molecule = "F26R V29D A30G A32D A36I T37A L40R: Gaussia luciferase mutant (protein, SIGNAL (1)..(17), Gaussia luciferase mutant) MGVKVLFALICIAVAEAKPTENNEDRNIDGVDSNFIATDRDADRGKLPGKKLPLEVLKEMEANARKAGCTRGCLICLSHIKCTPKMKKFIPGRCHTYEGDKESAQGGIGEAIVDIPEIPGFKDLEPMEQFIAQVDLCVDCTTGCLKGLANVQCSDLLKKWLPQRCATFASKIQGQVDKIKGAGGD"
cat = "Condition met"

[[record]]
molecule = "I10T C11S A13D A15I E16R A17S: Gaussia luciferase mutant (protein, SIGNAL (1)..(17), Gaussia luciferase mutant) MGVKVLFALTSIDVIRSKPTENNEDFNIVAVASNFATTDLDADRGKLPGKKLPLEVLKEMEANARKAGCTRGCLICLSHIKCTPKMKKFIPGRCHTYEGDKESAQGGIGEAIVDIPEIPGFKDLEPMEQFIAQVDLCVDCTTGCLKGLANVQCSDLLKKWLPQRCATFASKIQGQVDKIKGAGGD"
cat = "Condition met"

[[record]]
molecule = "K66N H79K E102D E110P L124M: Gaussia luciferase mutant (protein, SIGNAL (1)..(17), Gaussia luciferase mutant) MGVKVLFALICIAVAEAKPTENNEDFNIVAVASNFATTDLDADRGKLPGKKLPLEVLKEMEANARNAGCTRGCLICLSKIKCTPKMKKFIPGRCHTYEGDKDSAQGGIGPAIVDIPEIPGFKDMEPMEQFIAQVDLCVDCTTGCLKGLANVQCSDLLKKWLPQRCATFASKIQGQVDKIKGAGGD"
cat = "Condition not met"

[[record]]
molecule = "E102K S103T E110A: Gaussia luciferase mutant (protein, SIGNAL (1)..(17), Gaussia luciferase mutant) MGVKVLFALICIAVAEAKPTENNEDFNIVAVASNFATTDLDADRGKLPGKKLPLEVLKEMEANARKAGCTRGCLICLSHIKCTPKMKKFIPGRCHTYEGDKKTAQGGIGAAIVDIPEIPGFKDLEPMEQFIAQVDLCVDCTTGCLKGLANVQCSDLLKKWLPQRCATFASKIQGQVDKIKGAGGD"
cat = "Condition not met"

[[record]]
molecule = "H79K P84A E102S S103I A104G E110P L124M: Gaussia luciferase mutant (protein, SIGNAL (1)..(17), Gaussia luciferase mutant) MGVKVLFALICIAVAEAKPTENNEDFNIVAVASNFATTDLDADRGKLPGKKLPLEVLKEMEANARKAGCTRGCLICLSKIKCTAKMKKFIPGRCHTYEGDKSIGQGGIGPAIVDIPEIPGFKDMEPMEQFIAQVDLCVDCTTGCLKGLANVQCSDLLKKWLPQRCATFASKIQGQVDKIKGAGGD"
cat = "Condition met"

[[record]]
molecule = "P53L: Gaussia luciferase mutant (protein, SIGNAL (1)..(17), Gaussia luciferase mutant) MGVKVLFALICIAVAEAKPTENNEDFNIVAVASNFATTDLDADRGKLPGKKLLLEVLKEMEANARKAGCTRGCLICLSHIKCTPKMKKFIPGRCHTYEGDKESAQGGIGEAIVDIPEIPGFKDLEPMEQFIAQVDLCVDCTTGCLKGLANVQCSDLLKKWLPQRCATFASKIQGQVDKIKGAGGD"
cat = "Condition met"


Ask | Input Q152H S170D G174S K178T A182L: Gaussia luciferase mutant (protein, SIGNAL (1)..(17), Gaussia luciferase mutant) MGVKVLFALICIAVAEAKPTENNEDFNIVAVASNFATTDLDADRGKLPGKKLPLEVLKEMEANARKAGCTRGCLICLSHIKCTPKMKKFIPGRCHTYEGDKESAQGGIGEAIVDIPEIPGFKDLEPMEQFIAQVDLCVDCTTGCLKGLANVHCSDLLKKWLPQRCATFADKIQSQVDTIKGLGGD ; condition: Activity of mutant relative to wild-type Gaussia luciferase without the signal peptide strictly below 0.8. Does it hold?
Reply | Condition not met

Ask | Input K66N P84L E102K E110P D123N: Gaussia luciferase mutant (protein, SIGNAL (1)..(17), Gaussia luciferase mutant) MGVKVLFALICIAVAEAKPTENNEDFNIVAVASNFATTDLDADRGKLPGKKLPLEVLKEMEANARNAGCTRGCLICLSHIKCTLKMKKFIPGRCHTYEGDKKSAQGGIGPAIVDIPEIPGFKNLEPMEQFIAQVDLCVDCTTGCLKGLANVQCSDLLKKWLPQRCATFASKIQGQVDKIKGAGGD ; condition: Activity of mutant relative to wild-type Gaussia luciferase without the signal peptide strictly below 0.8. Does it hold?
Reply | Condition met
